pKi: −log10 of the molar value.
Target or system Muscarinic acetylcholine receptor M3 (Homo sapiens); metric pKi; compiled from varied reports.
measured.parameter: pKi

Some compounds with known pKi results, for comparison:
compound	pKi
O=C(CCNC(=O)CC(c1ccccc1)(c1ccccc1)c1ccccc1)NCCC(=O)NC[C@H]1CCCN(CC2CCCCC2)C1	9.12
c1coc([C@@H]2CCCN2)c1	4.36

I: CC(C1=C(CCN(C)C)Cc2ccccc21)c1ccccc1 (stereo not given)
II: CCN/C(=N\S(=O)(=O)c1cccc(Cl)c1)N1CC2(C=N1)CCNCC2
III: COc1ccc(CCN(C(=O)OC2CCCN(C)C2)c2ccccc2)cc1 (stereo not given)
IV: Cc1c(NC2(C)CC2)nc(C2CC2)nc1N1CCCCCC1
Which order do these items take when sorted by rising pKi? List them. Ranked list of labels, please, in the requested order.
II, III, I, IV
(II: 5.00, III: 5.88, I: 6.54, IV: 8.00)

A: O=C1CCc2ccccc2N1CCCN1CCC(CCc2ccccc2)CC1
B: C[N+]1(C)CCC[C@H]1[C@H]1C[S+]([O-])[C@@](c2ccccc2)(C2CCCCC2)O1.[I-] (stereo in doubt; (+)-12)
Which has the smaller recorded pKi, A or B ? Please respond with the label that marks your chosen entry.
A
(A: 6.30, B: 7.57)
